# Tested on: CEM cells HIV-1 protection, formazan growth assay
# protocol_description: NCI AIDS Antiviral Assay

# compound, EC50
rows = [
    ("COC(=O)c1cnc2nc(N3CCOCC3)[nH]n2c1=O", "> 12.9 µM"),
    ("CCCC(NCCNC(CCC)C(=O)O)C(=O)O (stereo not given)", "> 589 µM"),
    ("C[C@@]1(C(=O)O)CCC[C@@]2(C)C1[C@H](OC(=O)c1ccccc1)CC1CC3CC12CC[C@@]3(C)O (stereo not given in full)", "> 282 µM"),
    ("CC(=O)NNc1nc(C)c(C(/C=C/c2ccc(Cl)cc2)=N\\N=C(N)N)s1", "> 18.2 µM"),
    ("O=C(O)c1cccc(S(=O)(=O)NN2C(=O)CSC2c2ccccc2)c1 (stereo not given)", "> 200 µM"),
    ("CCc1ccccc1NC(=O)C1=C(C)NC(C)=C(C(=O)Nc2ccccc2CC)C1c1cccc([N+](=O)[O-])c1", "> 19.1 µM"),
    ("COc1ccc([C@H]2CC(=O)C[C@H](c3ccc(OC)cc3)C23C(=O)c2ccccc2C3=O)cc1", "> 200 µM"),
    ("Cc1ccc(NC(=O)CC(=O)n2nc(-c3ccccc3)c(N=Nc3ccccc3Cl)c2-c2ccccc2)cc1", "> 9.77 µM"),
    ("O=C1/C(=C\\c2cccc(Oc3ccccc3)c2)SC(c2ccccc2)N1c1ccc(Cl)cc1 (stereo not given)", "> 20 µM"),
    ("CN(C)CC1CCCCCCCCCC(CN(C)C)C1=O (stereo not given)", "> 5.89 µM"),
]

---

# System: CEM cells HIV-1 protection, formazan growth assay
# protocol_description: NCI AIDS Antiviral Assay
# stated_conditions: measured here: growth of uninfected CEM cells
Where a SMILES comes first, the peptide text is derived from it. Bridges are numbered along the chain shown (N, C = ends). The star is where a group is joined. Cbz = O=C(OCc1ccccc1)*
Note to self: IC50 under 20 µM means y, ties and anything higher get n.

# molecule, group_label
rows = [
    ("Nc1c(O)c(C(=O)O)cc2ccccc12", "y"),
    ("CC[C@](O)(C(=O)O)c1cc2n(c(=O)c1CO)Cc1cc3ccccc3nc1-2", "y"),
    ("Cc1c2c(n(CC(c3ccccc3)c3ccccc3)c1C)NN=C(C#N)S2(=O)=O", "n"),
    ("FC(F)(F)c1ccc2c(c1)N(CCCNCCN1CCOCC1)c1ccccc1S2", "n"),
    ("Nc1ccc(C2=NC(C(=O)O)C=C2)cc1 (configuration not stated)", "n"),
    ("NC(=O)c1ccc(NC=O)cc1", "n"),
    ("CNc1ncnc2c1cnn2CCCCO", "n"),
    ("c1ccc2c(c1)nc1nc3c(cn12)CCCC3", "n"),
    ("O=C1/C(=C/c2cccc(Br)c2)CCc2ccccc21", "y"),
    ("CCN(CC)c1c(-c2ccccc2)nnc2c3ccccc3nn12", "n"),
    ("COc1ccc(C(=O)Cc2nc3nnc(N)n3nc2CC(=O)c2ccc(OC)cc2)cc1", "n"),
    ("C/C(=N/OC(=O)N(C)C)c1ccccc1", "n"),
    ("c1ccc2c(c1)CCN(C1=NCCO1)C2", "n"),
    ("COc1ccc(COC2C(C/[N+]([O-])=N\\Nc3ccc([N+](=O)[O-])cc3)OC3OC(C)(C)OC32)cc1 (configuration not stated)", "y"),
    ("COC(=O)C1CCC(=O)NCCCCC(NC(=O)OCc2ccccc2)C(=O)N1 (stereo not drawn) (Cbz-Lys-Glu-OMe; lactam 1-2; configuration not given here)", "n"),
    ("CCC1(c2ccccc2)OCC(=O)NC1=O (configuration not stated)", "n"),
    ("COc1ccc(NC(=O)Oc2ccc3c(C)cc(=O)oc3c2)c(OC)c1 (tested in a mixture with another compound)", "n"),
    ("CCOC(=O)/C(C#N)=C/c1ccc(-c2ccccc2)cc1", "n"),
    ("N#CC1(C=O)c2ccccc2C=CN1C(=O)c1ccccc1 (configuration not stated)", "n"),
    ("c1ccc(C2=NNc3cccc[n+]3C2)cc1", "n"),
    ("O=C(Nc1ccccc1)c1nn(-c2cc(S(=O)(=O)O)c([N+](=O)[O-])cc2Cl)[n+](-c2cc(S(=O)(=O)[O-])c([N+](=O)[O-])cc2Cl)n1", "n"),
    ("CCN(CCCl)c1cc(C(=O)Nc2cc(NC(=O)c3cc(N(CC)CCCl)c([N+](=O)[O-])cc3[N+](=O)[O-])cc(C(=O)NCCN(C)C)c2)c([N+](=O)[O-])cc1[N+](=O)[O-]", "n"),
]

---

# Tested on: CEM cells HIV-1 protection, formazan growth assay
# protocol_description: NCI AIDS Antiviral Assay;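 active = compounds giving half or more protection of infected cells from virus-caused growth loss, again on retest; inactive = the rest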
Where a SMILES comes first, the peptide text is derived from it. The star is where a group is joined. Cbz = O=C(OCc1ccccc1)*
Labels: active, inactive

# compound, group_label
measured = [
    ("S=P1(Oc2ccccc2)OCCO1", "inactive"),
    ("O=C(O)CCC(=O)NNC(=O)CCC(=O)O", "inactive"),
    ("COc1cccc2c1OC1Sc3ccccc3-c3nn(-c4ccccc4)c-2c31 (stereo unspecified)", "inactive"),
    ("CC(=O)OC(CC1(C)C(C)CCC23COC(=O)C2=CCCC31)c1ccoc1 (stereo unspecified)", "inactive"),
    ("Cn1cc(C(=O)C2CCCCC2)ccc1=O", "inactive"),
    ("Cc1nc2cc(N)c(Cl)cc2[nH]1", "inactive"),
    ("Cc1cc2ccc(=O)oc2c2c1OC(C)(C)[C@H](OC(=O)C13CCC(C)(C(=O)O1)C3(C)C)[C@@H]2OC(=O)C12CCC(C)(C(=O)O1)C2(C)C (stereo partly specified)", "active"),
    ("CC1=NOC/C1=N\\Nc1ccc(C(C)=NC2C3CC4CC(C3)CC2C4)cc1 (stereo unspecified)", "inactive"),
    ("C=CCOCn1cc(F)c(=O)[nH]c1=O", "inactive"),
    ("COC(=O)C(NC(=O)C(C)NC(=O)C1CCCN1C(=O)CNC(=O)C(CO)NC(=O)C(NC(=O)OCc1ccccc1)C(C)O)C(C)O (stereo unspecified) (Cbz-TSGPAT-OMe; configuration not given here)", "inactive"),
    ("C(/COc1cccnc1)=N\\NC1=NCCN1", "inactive"),
]

---

# System: CEM cells HIV-1 protection, formazan growth assay
# protocol_description: NCI AIDS Antiviral Assay
# stated_conditions: measured here: growth of uninfected CEM cells

# compound, rel, IC50 / µM
rows = [
    ("C(=C/c1ccnc2ccccc12)/c1cccs1", "=", 47.9),
    ("NC(N)=NC(CSSCC(N=C(N)N)C(=O)O)C(=O)O (centres undefined)", ">", 200),
    ("COc1c(Cl)cc(C(=CCCCCN(C(=O)C=C(c2cc(Cl)c(OC)c(C(=O)O)c2)c2cc(Cl)c(OC)c(C(=O)O)c2)[C@H]2CC[C@@]3(C)[C@@H](CC[C@@H]4[C@@H]3CC[C@]3(C)[C@@H](C(C)CCCC(C)C)CC[C@@H]43)C2)c2cc(Cl)c(OC)c(C(=O)O)c2)cc1C(=O)O (some centres undefined)", "=", 81.3),
    ("Cc1cc(=O)n2nc(CCl)sc2n1", "=", 9.33),
    ("COc1cc(C(Cc2ccnc3ccccc23)Cc2ccnc3ccccc23)ccc1N(C)C", "=", 3.16),
    ("Nc1nc(Cl)c(/C=N\\O)c(NCC2(CO)CC(=O)C2)n1", "=", 17),
    ("CCCCCC(=O)Cc1cc(O)cc2c1C(=O)Oc1cc(O)c(C(=O)O)c(CCCCC)c1O2", "=", 33.9),
    ("O=C(O)C1CCSS1 (centres undefined)", "=", 263),
    ("CCN(CC)CC(C(=O)Nc1c(C)cccc1C)/C(C)=N/NC(N)=S (centres undefined)", ">", 37.2),
]

---

# System: CEM cells HIV-1 protection, formazan growth assay
# protocol_description: NCI AIDS Antiviral Assay
# stated_conditions: measured here: growth of uninfected CEM cells
quantity_kind: IC50

# molecule, quantity_kind, reading
measured = [
    ("CC1=C(O[Si](C(C)C)(C(C)C)C(C)C)C2CC1[C@@H]1C(=O)N(c3ccccc3)C(=O)[C@H]21 (stereo partly specified)", "IC50", "> 6.46 µM"),
    ("O=P(c1ccccc1)(c1ccccc1)P(=O)(c1ccccc1)c1ccccc1", "IC50", "> 200 µM"),
    ("CCCC(NCCNC(CCC)C(=O)O)C(=O)O (stereo unspecified)", "IC50", "> 589 µM"),
    ("CCOC(=O)N/N=C(/N)Cc1ccccc1", "IC50", "> 200 µM"),
    ("CC(C)N(C(=O)C12C3C4C5(C#N)C3C1(C#N)C5C42I)C(C)C (stereo unspecified)", "IC50", "316 µM"),
    ("CCOP(=O)(CC(C)P(=O)(OCC)OCC)OCC.C[CH2][Sn]([Cl])([Cl])[CH2]C (stereo unspecified)", "IC50", "1.7 µM"),
    ("COC(=O)C(Cc1c(-c2[nH]c3ccccc3c2CC(NC(C)=O)C(=O)OC)[nH]c2ccccc12)NC(C)=O (stereo unspecified)", "IC50", "> 200 µM"),
    ("CC(=O)Nc1ccc(/C(C#N)=C/c2ccc(N(C)CCC#N)cc2)cc1", "IC50", "19.1 µM"),
    ("COC(=O)CC(C(C(=O)OC)C(=O)OC)N1C(=O)OC(c2ccccc2)C1c1ccccc1 (stereo unspecified)", "IC50", "74.1 µM"),
    ("O=C(CCCNc1nc(-c2ccccc2)cs1)c1cccs1", "IC50", "> 50.1 µM"),
    ("C1CNCCNCCN1", "IC50", "> 200 µM"),
]
